All figures here come from ChEMBL document CHEMBL1667766.

Assign MIC to each entry below.
tested on: Aspergillus niger; experiment: Antifungal activity against Aspergillus niger after 72 hrs by microdilution method; format: functional
Where a SMILES comes first, the peptide text is derived from it. The star is where a group is joined. X1 = Fc1ccc2c(C3CCN(*)CC3)noc2c1
Field: numeric (mg/L). Do not append units.

Task item: Give me measured MIC, please, for this compound: `CC[C@@H](C)[C@H](NC(=O)CNC(=O)CN)C(=O)N1CCC[C@H]1C(=O)N1CCC(c2noc3cc(F)ccc23)CC1.O=C(O)C(F)(F)F`
Reply: 13

Task item: Give me measured MIC, please, for this compound: `N[C@@H](Cc1c[nH]c2ccccc12)C(=O)N1CCC(c2noc3cc(F)ccc23)CC1.O=C(O)C(F)(F)F`
Reply: 32

Task item: Give me measured MIC, please, for this compound: NCC(=O)N[C@@H](Cc1ccccc1)C(=O)NCC(=O)N[C@@H](Cc1ccccc1)C(=O)N1CCC[C@H]1C(=O)N1CCC(c2noc3cc(F)ccc23)CC1.O=C(O)C(F)(F)F (H-GFGFP-X1)
Reply: 6

Task item: Give me measured MIC, please, for this compound: CC(C)[C@H](NC(=O)CN)C(=O)NCC(=O)N[C@H](C(=O)N1CCC[C@H]1C(=O)N1CCC(c2noc3cc(F)ccc23)CC1)C(C)C.O=C(O)C(F)(F)F (H-GVGVP-X1)
Reply: 8

Task item: Give me measured MIC, please, for this compound: NCC(=O)NCC(=O)N[C@@H](Cc1ccccc1)C(=O)N1CCC[C@H]1C(=O)N1CCC(c2noc3cc(F)ccc23)CC1.O=C(O)C(F)(F)F (H-GGFP-X1)
Reply: 11

Task item: Give me measured MIC, please, for this compound: `N[C@@H](Cc1ccc(O)cc1)C(=O)N1CCC(c2noc3cc(F)ccc23)CC1.O=C(O)C(F)(F)F`
Reply: 34

Task item: Give me measured MIC, please, for this compound: `COC(=O)Nc1nc2ccccc2[nH]1`
Reply: 22

Task item: Give me measured MIC, please, for this compound: `N[C@@H](Cc1ccccc1)C(=O)N1CCC(c2noc3cc(F)ccc23)CC1.O=C(O)C(F)(F)F`
Reply: 18

Task item: Give me measured MIC, please, for this compound: C[C@H](NC(=O)CNC(=O)CN)C(=O)N1CCC[C@H]1C(=O)N1CCC(c2noc3cc(F)ccc23)CC1.O=C(O)C(F)(F)F (H-GGAP-X1)
Reply: 15

###

system: Xanthomonas oryzae; assay: Antimicrobial activity against Xanthomonas oryzae after 24 hrs by agar well diffusion method; type: functional
Where a SMILES comes first, the peptide text is derived from it. The star is where a group is joined. X1 = Fc1ccc2c(C3CCN(*)CC3)noc2c1
parameter: inhibition zone (IZ) (mm)
Field: numeric (mm). Do not append units.

Task item: Report value only: inhibition zone (IZ), Xanthomonas oryzae, CC(C)[C@H](NC(=O)CN)C(=O)NCC(=O)N[C@H](C(=O)N1CCC[C@H]1C(=O)N1CCC(c2noc3cc(F)ccc23)CC1)C(C)C.O=C(O)C(F)(F)F (H-GVGVP-X1)
Reply: 17

Task item: Report value only: inhibition zone (IZ), Xanthomonas oryzae, C[C@H](NC(=O)CNC(=O)CN)C(=O)N1CCC[C@H]1C(=O)N1CCC(c2noc3cc(F)ccc23)CC1.O=C(O)C(F)(F)F (H-GGAP-X1)
Reply: 13

Task item: Report value only: inhibition zone (IZ), Xanthomonas oryzae, `CC[C@@H](C)[C@H](NC(=O)CNC(=O)CN)C(=O)N1CCC[C@H]1C(=O)N1CCC(c2noc3cc(F)ccc23)CC1.O=C(O)C(F)(F)F`
Reply: 15

Task item: Report value only: inhibition zone (IZ), Xanthomonas oryzae, `N[C@@H](Cc1c[nH]c2ccccc12)C(=O)N1CCC(c2noc3cc(F)ccc23)CC1.O=C(O)C(F)(F)F`
Reply: 6

Task item: Report value only: inhibition zone (IZ), Xanthomonas oryzae, `N[C@@H](Cc1ccccc1)C(=O)N1CCC(c2noc3cc(F)ccc23)CC1.O=C(O)C(F)(F)F`
Reply: 11

Task item: Report value only: inhibition zone (IZ), Xanthomonas oryzae, NCC(=O)N[C@@H](Cc1ccccc1)C(=O)NCC(=O)N[C@@H](Cc1ccccc1)C(=O)N1CCC[C@H]1C(=O)N1CCC(c2noc3cc(F)ccc23)CC1.O=C(O)C(F)(F)F (H-GFGFP-X1)
Reply: 20
